For each record, write down the corresponding pEC50.
# System: P. falciparum 3D7
# assay procedure: DAPI stain fluorescent high content imaging assay, P. falciparum 3D7 (confirmatory screen, Avery)
# assay conditions: Plasmodium falciparum, 3D7, read-out: EC50_nM
Answers are plain numbers, as −log10 of the molar value.

* Cc1cccc(N2C(=O)C3C(C2=O)C2(c4ccccc4)C(=O)C3(c3ccccc3)C(c3ccc4c(c3)OCO4)=C2c2ccc3c(c2)OCO3)c1 (centres unmarked) | 6.52
* Cc1cc(C)cc(Nc2cc(C)nc3nc(C(F)(F)F)nn23)c1 | 7.07
* COc1ccc(Nc2nc(NN=Cc3ccc(O)cc3)nc(Nc3ccc([N+](=O)[O-])cc3)n2)cc1 | 6.27
* Brc1ccc(Nc2nc3ccccc3nc2Nc2ccc(Br)cc2)cc1 | 5.97

Q: Test system P. falciparum 3D7; read-out pEC50; what value for O=c1nc(C=Cc2ccc(Cl)cc2)oc2ccccc12 ?
Result: 6.00

---

# System: P. falciparum 3D7
# assay procedure: DAPI stain fluorescent high content imaging assay, P. falciparum 3D7 (confirmatory screen, Avery)
# assay conditions: Plasmodium falciparum, 3D7, read-out: percent_inh @ 5 uM
measured endpoint: inhibition of growth at 5 µM

Worked cases, answers included:
* COc1ccc2nc(C)cc(Nc3cccc(O)c3)c2c1 [MMV008212] | 98%
* CC1CCCCN1CCCNC(=O)c1ccc2c(c1)sc1nc(-c3ccc(F)cc3)cn12 (stereo not drawn) [MMV000634] | 98%
* Oc1ccc(Br)cc1CN1CCN(Cc2ccc(Cl)cc2)CC1 [MMV665809] | 97%
* COc1ccc(CCN2CCC(CN(C)Cc3cnn(-c4ccccc4)c3)CC2)cc1 [MMV666069] | 96%
* Cc1ccc(F)cc1NC(=O)c1cc(Cl)ccc1Nc1ccccc1 [MMV007275] | 99%

Would you mind giving inhibition of growth at 5 µM for every compound in the list below?
1. CN(C)CCCNCc1ccc(-c2ccc(F)c(Cl)c2)o1 [MMV020505]
2. Cc1ccc(N2C3c4ccccc4N(S(=O)(=O)c4ccc(C)cc4)C2c2ccccc2N3S(=O)(=O)c2ccc(C)cc2)cc1 [MMV007160]
3. O=C(NCc1ccco1)C1CCN(S(=O)(=O)c2ccc(Cl)cc2)CC1 [MMV006188]
4. Cc1ccc(CSCc2ccc(C(=O)NC3CC3)o2)cc1 [MMV007571]

Result:
["96%", "97%", "94%", "97%"]

---

# Test system: P. falciparum 3D7
# assay procedure: DAPI stain fluorescent high content imaging assay, P. falciparum 3D7 (confirmatory screen, Avery)
# assay conditions: Plasmodium falciparum, 3D7, read-out: EC50_nM
For each record, write down the corresponding pEC50.
Numbers only, as −log10 of the molar value.

* Cc1ccc(CSCc2ccc(C(=O)NC3CC3)o2)cc1 | 6.20

Would you mind giving pEC50 for every molecule in the list below?
1. COc1ccc(C(=O)Nc2nonc2-c2ccc(OC)c(OC)c2)cc1Cl
2. CCOc1cc2c(cc1OCC)C(c1cc(C)c(O)c(C)c1)NCC2 (centres unmarked)
3. CCCOCc1cc(CN2CCN(c3cccc(Cl)c3)CC2)c(O)c2ncccc12
4. Cc1c(C)n(CC(O)CNC2CCCCC2C)c2ccccc12 (centres unmarked)

Result:
6.29
6.17
6.39
6.11

---

# Tested on: P. falciparum 3D7
# assay procedure: DAPI stain fluorescent high content imaging assay, P. falciparum 3D7 (confirmatory screen, Avery)
# assay conditions: Plasmodium falciparum, 3D7, read-out: percent_inh @ 5 uM
measured endpoint: inhibition of growth at 5 µM (%)
One number for each entry, in %.

Worked cases, answers included:
* O=C(Nc1ccccc1O)c1ccc(Oc2cccc(C(=O)Nc3ccccc3O)c2)cc1 | 91
* Oc1ccc(Cl)cc1CNc1nc2ccccc2[nH]1 | 95
* CCOc1cc(Br)c(C(C)NC(=O)c2cccc(OC)c2)cc1OCC (centres unmarked) | 96
* Oc1c2c(nc3ccccc13)CCCC2 | 82
* COc1ccc(-n2ccnc2SCC(=O)Nc2cc(C)ccc2C)c(OC)c1 | 95

Would you mind giving inhibition of growth at 5 µM for every compound in the list below?
1. CCN1CCN(c2c(C(=O)c3ccccc3)cnc3cc(OC)c(OC)cc23)CC1
2. CCCCc1c(CCC)c(=N)c2ccccc2n1C

Result:
1. 59
2. 77

Would you mind giving inhibition of growth at 5 µM for every compound in the list below?
1. COc1cc(OC)cc(N2C(=O)N(Cc3ccc(C(C)(C)C)cc3)c3ccccc3S2(=O)=O)c1
2. Cc1ccc(-c2cc3c(nn2)-c2ccccc2C3=O)cc1

Result:
1. 97
2. 99

Would you mind giving inhibition of growth at 5 µM for every compound in the list below?
1. COc1ccc(C)c2sc(N(Cc3cccnc3)C(=O)c3ccc(C#N)cc3)nc12
2. COc1ccccc1CNC(=O)C1c2ccccc2C(=O)N(CC(C)C)C1c1cccs1 (centres unmarked)
3. CCC(=O)Nc1nnc(Cc2ccc(OC)c(OC)c2)s1
4. FC(F)(F)c1cccc(Nc2nc(-c3ccccc3)nc3ncccc23)c1
5. CC1CC(C)CN(C(=O)c2ccc(Cl)cc2Cl)C1 (centres unmarked)

Result:
1. 91
2. 97
3. 47
4. 74
5. 95

---

# Test system: P. falciparum 3D7
# assay procedure: DAPI stain fluorescent high content imaging assay, P. falciparum 3D7 (confirmatory screen, Avery)
# assay conditions: Plasmodium falciparum, 3D7, read-out: EC50_nM
measured endpoint: EC50 (nM)
Answers are plain numbers, in nM.

Worked cases, answers included:
- COc1ccc(-c2cc(=O)oc3c4c(ccc23)OCN(Cc2ccc(F)cc2)C4)cc1: 735
- CCc1ccc(Nc2cc(C)nc3nc(C)nn23)cc1: 4000
- O=C(NC1CCN(Cc2ccccc2)CC1)c1cc(C(=O)NC2CCN(Cc3ccccc3)CC2)cc(C(=O)NC2CCN(Cc3ccccc3)CC2)c1: 646
- CSC1=NC(=Nc2c(C)cccc2C)C2(CCC(C(C)(C)C)CC2)N1c1ccc(Cl)cc1 (centres unmarked): 135
- COc1ccc(-c2cc3c(SCC(=O)Nc4cc(C(F)(F)F)ccc4Cl)nccn3n2)cc1: 89.9

Would you mind giving EC50 for every molecule in the list below?
1. COc1ccc(-c2nc(NC(=O)CS(=O)(=O)c3ccc(F)cc3)sc2C)cc1
2. COc1ccc(C(=O)NC(c2ccc(Cl)cc2Cl)c2cc(Cl)c3cccnc3c2O)cc1 (centres unmarked)
3. Fc1ccc2[nH]c3c(NCCCN4CCOCC4)ncnc3c2c1

Result:
1. 448
2. 513
3. 345

---

# Test system: P. falciparum 3D7
# assay procedure: DAPI stain fluorescent high content imaging assay, P. falciparum 3D7 (confirmatory screen, Avery)
# assay conditions: Plasmodium falciparum, 3D7, read-out: percent_inh @ 5 uM
measured endpoint: inhibition of growth at 5 µM (%)
Answers are plain numbers, in %.

Worked cases, answers included:
• COc1ccc(C2Sc3ccccc3N=C3C2=C(O)c2ccccc23)cc1 (stereo not shown) = 96
• CC1CC2=C(CC1CNCCCN(C)C)C(C)(C)CCC2 (stereo not shown) = 98
• CCCCOC(=O)c1ccc(Nc2cc(C)nc3ccc(OC)cc23)cc1 = 99
• O=C(NCc1ccco1)C1CCN(S(=O)(=O)c2ccc(Br)cc2)CC1 = 93
• O=C(Nc1ccc(-c2nc3cc4ccccc4cc3[nH]2)cc1)c1cccc(Br)c1 = 93
• CCOC(=O)c1cnc2c(C)cc(C)cc2c1Nc1ccc(OC)c(OC)c1 = 96

Would you mind giving inhibition of growth at 5 µM for every compound in the list below?
1. COc1cc(-c2nc(-c3ccccc3)c(-c3ccccc3)[nH]2)cc(OC)c1O
2. CCN(CC)CCn1c(=N)n(CC(O)c2ccc(Cl)c(Cl)c2)c2ccccc21 (stereo not shown)
3. CCOC(=O)c1cnc2c(CC)cccc2c1O

Result:
1. 97
2. 97
3. 87

Would you mind giving inhibition of growth at 5 µM for every compound in the list below?
1. CCOC(=O)C1=C(c2ccccc2)N=c2sc(=Cc3cc(C)n(-c4ccc(F)cc4)c3C)c(=O)n2C1c1cccc(OC)c1OC (stereo not shown)
2. COc1ccccc1C(=O)ON=C(N)Cc1cccc2ccccc12
3. CC(Oc1ccc(NC(=O)c2cccs2)cc1)C(=O)c1ccc(Cl)cc1 (stereo not shown)
4. c1ccc2c(NCCCCCCNc3c4c(nc5ccccc35)CCCC4)c3c(nc2c1)CCCC3
5. OC1=C2C(=Nc3ccccc3SC2c2ccc(Br)cc2)c2ccccc21 (stereo not shown)

Result:
[94, 97, 87, 100, 97]

Would you mind giving inhibition of growth at 5 µM for every compound in the list below?
1. CC(=O)NCCc1nc2ccccc2n1Cc1ccc(C(C)C)cc1
2. CC(C)(C)c1ccc(O)c(CNC2CCCCC2)c1
3. c1ccc(C2=Nc3ccccc3N=C(c3ccccc3)c3ccccc32)cc1
4. COc1ccc(CNC(=O)c2cc3c(=O)n4ccccc4nc3n(CCc3ccccc3)c2=N)cc1
5. CCN1CCN(Cc2ccc(NC(=O)c3cc4ccc5cccnc5c4[nH]3)cc2)CC1

Result:
97
96
99
95
70
